Reference source: paper PMC10300102

Assay: In vitro monkey plasma assay
Type: in vitro ADME, cynomolgus monkey
Conditions: monkey, plasma (pooled, frozen), cynomolgus monkey plasma, time 360 min, n=2; read-out: % Remaining
readout name: remaining at 6 h, 2 µM (%)
Answer in %, number only, no unit symbol.

## Task Which remaining at 6 h, 2 µM is reported for this compound? C[C@H](N)C(=O)NCC(=O)N[C@H]1CSSC[C@@H](C(=O)O)NC(=O)[C@H](CO)NC(=O)[C@H]([C@@H](C)O)NC(=O)[C@H](Cc2ccccc2)NC(=O)[C@H]([C@@H](C)O)NC(=O)[C@H](CCCCN)NC(=O)[C@H](Cc2c[nH]c3ccccc23)NC(=O)[C@H](Cc2ccccc2)NC(=O)[C@H](Cc2ccccc2)NC(=O)[C@H](CC(N)=O)NC(=O)[C@H](CCCCN)NC1=O [somatostatin acetate, reference compound]
## Result 3.81

* * *

Test: In vitro monkey plasma assay
Format: in vitro ADME, cynomolgus monkey
Settings: male, monkey, pooled plasma, cynomolgus monkey plasma, time 120 min, n=2
Procedure: Briefly, pooled frozen plasma was thawed at 37 °C prior to experiments. Plasma was centrifuged at 3720 x g for 5 min and any clots were removed. All blanks and working solutions were aliquoted on an Apricot automation workstation (2 μL/well of working solution (100 μM) with 98 μL plasma for NACE2i peptide (CP300638) and control compounds somatostatin acetate and procaine hydrochloride). […]
Counter-ions that a name gives are not always drawn.
readout name: remaining at 2 h, 2 µM
Reply with the number and its unit after it.

## Task Which remaining at 2 h, 2 µM is reported for this compound? CCN(CC)CCOC(=O)c1ccc(N)cc1 [procaine hydrochloride, reference compound]
## Result 0.381%

* * *

Test: In vitro monkey plasma assay
Format: in vitro ADME, cynomolgus monkey
Details: male, monkey, pooled plasma, cynomolgus monkey plasma, time 15 min, n=2
Counter-ions that a name gives are not always drawn.
readout name: remaining at 0.25 h, 2 µM (%)
Answer in %, number only, no unit symbol.

## Task Which remaining at 0.25 h, 2 µM is reported for this compound? CCN(CC)CCOC(=O)c1ccc(N)cc1 [procaine hydrochloride, reference compound]
## Result 27.3

* * *

Reported remaining at 1 h, 2 µM values follow for various compounds
Assay: In vitro monkey plasma assay
Format: in vitro ADME, cynomolgus monkey
Conditions: monkey, plasma (pooled, frozen), cynomolgus monkey plasma, time 60 min, n=2
Where a SMILES comes first, the peptide text is derived from it. The star is where a group is joined. Myristoyl = CCCCCCCCCCCCCC(=O)*

| compound | remaining at 1 h, 2 µM |
| --- | --- |
| C[C@H](N)C(=O)NCC(=O)N[C@H]1CSSC[C@@H](C(=O)O)NC(=O)[C@H](CO)NC(=O)[C@H]([C@@H](C)O)NC(=O)[C@H](Cc2ccccc2)NC(=O)[C@H]([C@@H](C)O)NC(=O)[C@H](CCCCN)NC(=O)[C@H](Cc2c[nH]c3ccccc23)NC(=O)[C@H](Cc2ccccc2)NC(=O)[C@H](Cc2ccccc2)NC(=O)[C@H](CC(N)=O)NC(=O)[C@H](CCCCN)NC1=O [somatostatin acetate, reference compound] | 50.2% |

## Task Which remaining at 1 h, 2 µM is reported for this compound? CCCCCCCCCCCCCC(=O)N[C@H](C(=O)NCC(=O)N[C@H](C(=O)N[C@@H](CCCNC(=N)N)C(=O)N[C@@H](CC(=O)O)C(=O)N[C@@H](CCCNC(=N)N)C(=O)N[C@@H](CCCCN)C(=O)N[C@@H](CCCCN)C(=O)N[C@@H](CCCCN)C(=O)N[C@@H](CC(N)=O)C(=O)N[C@@H](CCCCN)C(=O)N[C@@H](C)C(=O)N[C@@H](CCCNC(=N)N)C(=O)N[C@@H](CO)C(=O)O)[C@@H](C)CC)[C@@H](C)O [NACE2i] (Myristoyl-TGIRDRKKKNKARS-OH)
## Result 81.1%

* * *

Experiment: In vitro monkey plasma assay
Format: in vitro ADME, cynomolgus monkey
Settings: monkey, plasma (pooled, frozen), cynomolgus monkey plasma, time 15 min, n=2
Where a SMILES comes first, the peptide text is derived from it. The star is where a group is joined. Myristoyl = CCCCCCCCCCCCCC(=O)*
readout name: remaining at 0.25 h, 2 µM (%)
Answer in %, number only, no unit symbol.

| molecule | remaining at 0.25 h, 2 µM / % |
| --- | --- |
| CCCCCCCCCCCCCC(=O)N[C@H](C(=O)NCC(=O)N[C@H](C(=O)N[C@@H](CCCNC(=N)N)C(=O)N[C@@H](CC(=O)O)C(=O)N[C@@H](CCCNC(=N)N)C(=O)N[C@@H](CCCCN)C(=O)N[C@@H](CCCCN)C(=O)N[C@@H](CCCCN)C(=O)N[C@@H](CC(N)=O)C(=O)N[C@@H](CCCCN)C(=O)N[C@@H](C)C(=O)N[C@@H](CCCNC(=N)N)C(=O)N[C@@H](CO)C(=O)O)[C@@H](C)CC)[C@@H](C)O [NACE2i] (Myristoyl-TGIRDRKKKNKARS-OH) | 86.2 |

Attention now shifts to the item below.
## Task Which remaining at 0.25 h, 2 µM is reported for this molecule? C[C@H](N)C(=O)NCC(=O)N[C@H]1CSSC[C@@H](C(=O)O)NC(=O)[C@H](CO)NC(=O)[C@H]([C@@H](C)O)NC(=O)[C@H](Cc2ccccc2)NC(=O)[C@H]([C@@H](C)O)NC(=O)[C@H](CCCCN)NC(=O)[C@H](Cc2c[nH]c3ccccc23)NC(=O)[C@H](Cc2ccccc2)NC(=O)[C@H](Cc2ccccc2)NC(=O)[C@H](CC(N)=O)NC(=O)[C@H](CCCCN)NC1=O [somatostatin acetate, reference compound]
## Result 77.1

* * *

Experiment: In vitro monkey plasma assay
Format: in vitro ADME, cynomolgus monkey
Settings: monkey, plasma (pooled, frozen), cynomolgus monkey plasma, time 240 min, n=2
Where a SMILES comes first, the peptide text is derived from it. The star is where a group is joined. Myristoyl = CCCCCCCCCCCCCC(=O)*
readout name: remaining at 4 h, 2 µM (%)
Answer in %, number only, no unit symbol.

| molecule | remaining at 4 h, 2 µM, % |
| --- | --- |
| CCCCCCCCCCCCCC(=O)N[C@H](C(=O)NCC(=O)N[C@H](C(=O)N[C@@H](CCCNC(=N)N)C(=O)N[C@@H](CC(=O)O)C(=O)N[C@@H](CCCNC(=N)N)C(=O)N[C@@H](CCCCN)C(=O)N[C@@H](CCCCN)C(=O)N[C@@H](CCCCN)C(=O)N[C@@H](CC(N)=O)C(=O)N[C@@H](CCCCN)C(=O)N[C@@H](C)C(=O)N[C@@H](CCCNC(=N)N)C(=O)N[C@@H](CO)C(=O)O)[C@@H](C)CC)[C@@H](C)O [NACE2i] (Myristoyl-TGIRDRKKKNKARS-OH) | 87.4 |

Attention now shifts to the item below.
## Task Which remaining at 4 h, 2 µM is reported for this molecule? C[C@H](N)C(=O)NCC(=O)N[C@H]1CSSC[C@@H](C(=O)O)NC(=O)[C@H](CO)NC(=O)[C@H]([C@@H](C)O)NC(=O)[C@H](Cc2ccccc2)NC(=O)[C@H]([C@@H](C)O)NC(=O)[C@H](CCCCN)NC(=O)[C@H](Cc2c[nH]c3ccccc23)NC(=O)[C@H](Cc2ccccc2)NC(=O)[C@H](Cc2ccccc2)NC(=O)[C@H](CC(N)=O)NC(=O)[C@H](CCCCN)NC1=O [somatostatin acetate, reference compound]
## Result 18.1

* * *

Assay: In vitro monkey plasma assay
Assay type: in vitro ADME, cynomolgus monkey
Details: male, monkey, pooled plasma, cynomolgus monkey plasma, time 30 min, n=2
Counter-ions that a name gives are not always drawn.
readout name: remaining at 0.5 h, 2 µM

## Task Which remaining at 0.5 h, 2 µM is reported for this compound? CCN(CC)CCOC(=O)c1ccc(N)cc1 [procaine hydrochloride, reference compound]
## Result 3.07%

* * *

Assay: In vitro monkey plasma assay
Type: in vitro ADME, cynomolgus monkey
Settings: male, monkey, pooled plasma, cynomolgus monkey plasma, time 60 min, n=2
Where a name gives a salt, the structure may show the parent alone.
readout name: remaining at 1 h, 2 µM (%)
Answer in %, number only, no unit symbol.

## Task Which remaining at 1 h, 2 µM is reported for this compound? CCN(CC)CCOC(=O)c1ccc(N)cc1 [procaine hydrochloride, reference compound]
## Result 0.813

* * *

Assay: In vitro monkey plasma assay
Type: in vitro ADME, cynomolgus monkey
Settings: male, monkey, pooled plasma, pooled male cynomolgus monkey plasma, 2 µL of 100 µM working solution + 98 µL plasma, 37 °C, 360 min, LC-MS/MS; read-out: % remaining in plasma after 360 min incubation
Counter-ions that a name gives are not always drawn.
readout name: remaining at 6 h, 2 µM (%)
Answer in %, number only, no unit symbol.

## Task Which remaining at 6 h, 2 µM is reported for this compound? CCN(CC)CCOC(=O)c1ccc(N)cc1 [procaine hydrochloride, reference compound]
## Result 0
